assayed.system: Sigma intracellular receptor 2 (Rattus norvegicus)
test.name: Displacement of [3H]DTG from sigma 2 receptor in rat liver membranes at 10 uM after 120 mins by scintillation counting analysis
Type: cell membranes
test.conditions: Membrane
The source made the active and inactive calls. The calls are words filed in the database; no cut-off is given here.
assay.metric: Activity

• Cc1ccc(S(=O)(=O)NCc2nc(C)c(C(=O)NNC(=O)c3ccccc3)s2)cc1 = inactive
• Cc1nc(CNS(=O)(=O)c2ccc(F)c(Cl)c2)sc1C(=O)NNC(=O)c1cccs1 = inactive
• Cc1nc(NS(=O)(=O)Cc2ccccc2)sc1C(=O)NCc1ccccc1 = inactive
• Cc1ccc(S(=O)(=O)NCc2cc(C(=O)NNC(=O)c3ccccc3)no2)cc1 = inactive
• Cc1ccc(S(=O)(=O)NCc2nc(C)c(C(=O)NNC(=O)c3cccs3)s2)cc1 = inactive
